Let's look at some molecules and their measured Cyno Primary Hepatocyte Editing % 2500.
- System: PCSK9 gene
- Assay text: PCSK9 gRNA/SpCas9 editing in primary cynomolgus hepatocytes (Tables 2, 22)
- Type: cell-based, cynomolgus monkey
- Assay setup: 2500 ng/RNA/mL; SpCas9 mRNA MS002 1:1 by weight
In the oligonucleotide strings, read from the 5' end, every base follows the letter of its sugar. An asterisk marks phosphorothioate; unmarked linkages are phosphodiester. Other units and linkages are bracketed, terminal groups are in braces. A string of capitals states the bases alone. m = 2'-O-methyl; r = 2'-OH (RNA)
The reply should contain only the number, in %.

GA159: PCSK9 gRNA; protospacer GCGTTCCGAGGAGGACGGCC (SEQ ID NO: 153) (nucleic acid) guide: mG*mC*mG*rUrUrCrCrGrArGrGrArGrGrArCrGrGrCrCrGrUrUrUrUrArGrArGrCrUrArGrArArArUrArGrCrArArGrUrUrArArArArUrArArGrGrCrUrArGrUrCrCrGrUrUrArUrCrArArCrUrUrGrArArArArArGrUrGrGrCrArCrCrGrArGrUrCrGrGrUrGrCrU*mU*mU*mU | 12.21
GA233: PCSK9 gRNA; protospacer GCGGCTGTACCCACCCGCCA (SEQ ID NO: 227) (nucleic acid, sugars from the 5' end m3 r94 m3, linkages s3 o93 s3 (s phosphorothioate, o phosphodiester), T or U not given here) guide: GCGGCUGUACCCACCCGCCAGUUUUAGAGCUAGAAAUAGCAAGUUAAAAUAAGGCUAGUCCGUUAUCAACUUGAAAAAGUGGCACCGAGUCGGUGCUUUU | 37.8
GA158: PCSK9 gRNA; protospacer GCTAGCCTTGCGTTCCGAGG (SEQ ID NO: 152) (nucleic acid) guide: mG*mC*mU*rArGrCrCrUrUrGrCrGrUrUrCrCrGrArGrGrGrUrUrUrUrArGrArGrCrUrArGrArArArUrArGrCrArArGrUrUrArArArArUrArArGrGrCrUrArGrUrCrCrGrUrUrArUrCrArArCrUrUrGrArArArArArGrUrGrGrCrArCrCrGrArGrUrCrGrGrUrGrCrU*mU*mU*mU | 18.27
GA167: PCSK9 gRNA; protospacer TCAGCTCCAGGCGGTCCTGG (SEQ ID NO: 161) (nucleic acid, sugars from the 5' end m3 r94 m3, linkages s3 o93 s3 (s phosphorothioate, o phosphodiester), T or U not given here) guide: UCAGCUCCAGGCGGUCCUGGGUUUUAGAGCUAGAAAUAGCAAGUUAAAAUAAGGCUAGUCCGUUAUCAACUUGAAAAAGUGGCACCGAGUCGGUGCUUUU | 66.07
GA242: PCSK9 gRNA; protospacer TCACCGCTGCCGGCAACTTC (SEQ ID NO: 235) (nucleic acid, sugars from the 5' end m3 r94 m3, linkages s3 o93 s3 (s phosphorothioate, o phosphodiester), T or U not given here) guide: UCACCGCUGCCGGCAACUUCGUUUUAGAGCUAGAAAUAGCAAGUUAAAAUAAGGCUAGUCCGUUAUCAACUUGAAAAAGUGGCACCGAGUCGGUGCUUUU | 31.71

Now look at this one.
Given the molecule GA208: PCSK9 gRNA; protospacer CCAGCATACAGAGTGACCAC (SEQ ID NO: 202) (nucleic acid, sugars from the 5' end m3 r94 m3, linkages s3 o93 s3 (s phosphorothioate, o phosphodiester), T or U not given here) guide: CCAGCAUACAGAGUGACCACGUUUUAGAGCUAGAAAUAGCAAGUUAAAAUAAGGCUAGUCCGUUAUCAACUUGAAAAAGUGGCACCGAGUCGGUGCUUUU , what is its reported Cyno Primary Hepatocyte Editing % 2500?
25.07

The origin of these recorded values is patent US20250152746A1.
